# measuredOn: TJP1_1, Q07157
# Sequence (Q07157 18-120): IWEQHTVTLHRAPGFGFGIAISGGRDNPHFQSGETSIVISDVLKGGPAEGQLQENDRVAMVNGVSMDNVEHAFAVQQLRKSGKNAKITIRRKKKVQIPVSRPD
# methodDescription: holdup assay
# Parameters: key: below the threshold = too weak to quantify, mostly under pKd 3.1 to 4
# experimentalSetup: plain residues with an end cap or a label only (N-terminal biotin on a linker: ttds)

{"columns": ["binder", "pKd"],
 "data": [
  ["PPRQRSETQV [HPV82-E6, Q9IR59]", "below the threshold"],
  ["SGGKRKETLV [NET1, Q7Z628]", 3.89],
  ["SHSSKGETAV [FZD7, O75084]", "below the threshold"],
  ["PSRDRKETSI [RALBP1, Q15311]", "below the threshold"]
]}
